Target: human NKG2A/CD94 on cells (CHOK1-hNKG2A/CD94) (human, UniProt P26715 1-233; Q13241 1-179)
Sequence (P26715 whole entry, chain 1 of 2): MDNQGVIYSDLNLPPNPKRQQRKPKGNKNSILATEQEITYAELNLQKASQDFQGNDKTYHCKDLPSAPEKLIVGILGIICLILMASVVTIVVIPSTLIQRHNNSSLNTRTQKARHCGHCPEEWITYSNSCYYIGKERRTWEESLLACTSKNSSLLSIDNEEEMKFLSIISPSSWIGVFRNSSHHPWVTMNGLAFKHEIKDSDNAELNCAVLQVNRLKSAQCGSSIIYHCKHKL
Sequence (Q13241 whole entry, chain 2 of 2): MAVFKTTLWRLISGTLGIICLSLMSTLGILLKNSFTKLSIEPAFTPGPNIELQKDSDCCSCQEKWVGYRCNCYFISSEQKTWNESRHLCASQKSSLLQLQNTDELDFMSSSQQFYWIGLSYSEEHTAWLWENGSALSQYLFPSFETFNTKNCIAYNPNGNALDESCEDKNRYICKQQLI
Test: cell-based or functional assay
Items are presented alongside their recorded IC50 (nM), killing of LCL721.221 target cells by NK92 cells.
Numbers only here, please. The scale is nM.

Illustrative cases are given below, each with its answer.
# Binder, Unit Descriptor, Assay Result
records = [
    ("hu-43VH-13/VL-11 (antibody, human IgG4 S228P, kappa, V domains shown) VH: QVQLVQSGAEVKKPGASVKVSCKASGFNIQNTYIHWVRQAPGQGLEWIGRIDPASGSTEYAPKFQGRATITADTSTNTGYMELSSLRSEDTAVYYCARYGNFLYYYSMDYWGQGTLVTVSS VL: DIVMTQSPLSLPVTPGEPASISCRSNKSLLHSNGNTYLYWFLQKPGQSPQLLIYRMSNLASGVPDRFSGSGSGTDFTLKISRVEAEDVGVYYCMQHLENPYTFGQGTKLEIKR", "nM", 0.37),
    ("hu-43VH-21/VL-11 (antibody, human IgG4 S228P, kappa, V domains shown) VH: QVQLVQSGAEVKKPGASVKVSCKASGFNIQNTYIHWVRQAPGQGLEWMGRIDPASGSTEYAPKFQGRVTMTADTSINTGYMELSRLRSDDTAVYYCARYGNFLYYYSMDYWGQGTLVTVSS VL: DIVMTQSPLSLPVTPGEPASISCRSNKSLLHSNGNTYLYWFLQKPGQSPQLLIYRMSNLASGVPDRFSGSGSGTDFTLKISRVEAEDVGVYYCMQHLENPYTFGQGTKLEIKR", "nM", 0.52),
    ("hu-43VH-11/VL-31 (antibody, human IgG4 S228P, kappa, V domains shown) VH: QVQLVQSGAEVKKPGASVKVSCKASGFNIQNTYIHWVRQAPGQGLEWMGRIDPASGSTEYAPKFQGRVTMTADTSTNTGYMELSSLRSEDTAVYYCARYGNFLYYYSMDYWGQGTLVTVSS VL: DIVMTQTPLSLSVTPGQPASISCRSNKSLLHSNGNTYLYWFLQKPGQPPQLLIYRMSNLASGVPDRFSGSGSGTDFTLKISRVEAEDVGVYYCMQHLENPYTFGQGTKLEIRT", "nM", 0.45),
]

Requested read-out: IC50 (nM), killing of LCL721.221 target cells by NK92 cells. Entry: hu-43VH-11/VL-21 (antibody, human IgG4 S228P, kappa, V domains shown) VH: QVQLVQSGAEVKKPGASVKVSCKASGFNIQNTYIHWVRQAPGQGLEWMGRIDPASGSTEYAPKFQGRVTMTADTSTNTGYMELSSLRSEDTAVYYCARYGNFLYYYSMDYWGQGTLVTVSS VL: DIVMTQSPLSLPVTLGQPASISCRSNKSLLHSNGNTYLYWFQQRPGQSPRLLIYRMSNLASGVPDRFSGSGSGTDFTLKISRVEAEDVGVYYCMQHLENPYTFGQGTKLEIKR
0.33

Each recorded value in this set is attributed to patent US20260209347A1.
